Values were extracted from patent US20260008760A1.

Molecular target: DPP1 in HL-60 cells (Homo sapiens, UniProt P53634)
Sequence (P53634 25-463): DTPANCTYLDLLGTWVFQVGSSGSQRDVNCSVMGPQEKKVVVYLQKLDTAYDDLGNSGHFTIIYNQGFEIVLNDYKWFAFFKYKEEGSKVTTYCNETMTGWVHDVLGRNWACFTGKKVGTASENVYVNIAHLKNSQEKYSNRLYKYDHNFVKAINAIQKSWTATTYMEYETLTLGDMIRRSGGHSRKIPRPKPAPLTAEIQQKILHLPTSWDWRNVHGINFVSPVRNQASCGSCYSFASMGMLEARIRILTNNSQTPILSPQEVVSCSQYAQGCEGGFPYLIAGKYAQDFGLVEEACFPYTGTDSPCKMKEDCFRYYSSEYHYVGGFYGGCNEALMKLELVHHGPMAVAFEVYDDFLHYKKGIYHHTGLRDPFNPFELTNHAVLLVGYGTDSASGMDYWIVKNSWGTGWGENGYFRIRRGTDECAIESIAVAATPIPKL
Experiment: DPP1 Cell IC50 assay
Type: cell-based
Design: host or cells: HL-60 cells
Conditions: 60 min pre-incubation, H-Gly-Phe-AFC substrate, average of n runs, read-out: Avg. IC50 (DPP1 Cell IC50 value ranges)
pIC50: −log10 of the molar value.
recordedEndpoint: pIC50

{"molecule": "Cn1nc(F)c2ccc(-c3ccc(C[C@@H](C#N)NC(=O)[C@@H]4CNCCCO4)cc3)cc21 [Compound A1]", "experimentalResult": "< 8.60"}
{"molecule": "C[C@@H]1NC[C@@H](C(=O)N[C@H](C#N)Cc2ccc(-c3ccc4cnn(C)c4c3)cc2F)OC[C@@H]1O [Compound H31]", "experimentalResult": "8.60 to 9.00"}
{"molecule": "N#C[C@H](Cc1ccc(-c2ccc3c(c2)C2(CCN(C4CC4)CC2)SCC3)cc1)NC(=O)[C@@H]1CNCCCO1 [Compound I7]", "experimentalResult": "< 8.60"}
{"molecule": "N#Cc1ccc2c(c1)COc1cc(CC(C#N)NC(=O)[C@@H]3CNCCCCO3)c(F)cc1-2 (single isomer, unassigned) [Compound B9]", "experimentalResult": "8.60 to 9.00"}
{"molecule": "C[C@@H]1NC[C@@H](C(=O)N[C@H](C#N)Cc2ccc(-c3ccc4c(F)nn(C)c4c3)cc2F)OC[C@@H]1O [Compound A166]", "experimentalResult": "8.60 to 9.00"}
{"molecule": "N#C[C@H](Cc1ccc(-c2ccc3c(n2)CCCN3)cc1)NC(=O)[C@@H]1CNCCCO1 [Compound A10]", "experimentalResult": "< 8.60"}
{"molecule": "CO[C@@H]1CCNC[C@@H](C(=O)N[C@H](C#N)Cc2ccc(-c3cc4c(C)nc(C)cn4c3)s2)OC1 [Compound A34]", "experimentalResult": "8.60 to 9.00"}
{"molecule": "CCc1sc(-c2ccc(C[C@@H](C#N)NC(=O)[C@@H]3CNCCCO3)cc2)nc1-c1cnn(C)c1 [Compound D8]", "experimentalResult": "< 8.60"}
{"molecule": "Cn1c(=O)oc2cc3c(cc21)-c1cc(F)c(CC(C#N)NC(=O)[C@@H]2CNCCCO2)cc1OC3 (stereo partly shown) [Compound C1]", "experimentalResult": "< 8.60"}
{"molecule": "Cc1sc(-c2ccc(C[C@@H](C#N)NC(=O)[C@@H]3CNCCCO3)cc2)nc1-c1cc[nH]c(=O)c1 [Compound D9]", "experimentalResult": "< 8.60"}
{"molecule": "Cc1nc(-c2ccc(C[C@@H](C#N)NC(=O)[C@@H]3CNCCCO3)cc2)sc1C#N [Compound 10]", "experimentalResult": "< 8.60"}
{"molecule": "CCN1C(=O)Cc2ccc(-c3ccc(C[C@@H](C#N)NC(=O)[C@@H]4CN[C@@H](C)[C@@H](O)CO4)c(F)c3)cc21 [Compound G10]", "experimentalResult": "< 8.60"}
{"molecule": "CCN1C(=O)Cc2ccc(-c3ccc(C[C@@H](C#N)NC(=O)[C@@H]4CN[C@@H](C)[C@@H](O)CO4)cc3)cc21 [Compound G9]", "experimentalResult": "< 8.60"}
{"molecule": "N#C[C@H](Cc1ccc(-c2csc(-c3nnc(N)o3)c2)cc1)NC(=O)[C@@H]1CNCCCO1 [Compound D2]", "experimentalResult": "< 8.60"}
{"molecule": "N#C[C@H](Cc1ccc(-c2ccc3c(c2)CCCS3)cc1)NC(=O)[C@@H]1CNCCCO1 [Compound A5]", "experimentalResult": "< 8.60"}
{"molecule": "CO[C@H]1CCO[C@H](C(=O)N[C@H](C#N)Cc2ccc(-c3ccc4c(n3)CCCN4)cc2F)CNC1 [Compound A49]", "experimentalResult": "< 8.60"}
{"molecule": "COc1ccc(-c2ccc(C[C@@H](C#N)NC(=O)[C@@H]3CNCCCO3)cc2)cc1-n1cnnc1 [Compound 31]", "experimentalResult": "< 8.60"}
{"molecule": "N#C[C@H](Cc1ccc(-c2ccc3c(c2)[C@@]2(CCN(C4COC4)C2)COC3)cc1)NC(=O)[C@@H]1CNCCCO1 [Compound I6]", "experimentalResult": "< 8.60"}
{"molecule": "Cc1ncc(C)n2cc(-c3ccc(C[C@@H](C#N)NC(=O)[C@@H]4CNCCCCO4)cc3)cc12 [Compound A137]", "experimentalResult": "8.60 to 9.00"}
{"molecule": "Cn1c(=O)oc2cc3c(cc21)-c1cc(F)c(C[C@@H](C#N)NC(=O)[C@@H]2CNCCCCO2)cc1SC3 [Compound C8]", "experimentalResult": "8.60 to 9.00"}
{"molecule": "Cc1cn2c3c(cc2c(C)n1)-c1cc(F)c(C[C@@H](C#N)NC(=O)[C@@H]2CNCCCO2)cc1OC3 [Compound C10]", "experimentalResult": "8.60 to 9.00"}
{"molecule": "CO[C@@H]1CCNC[C@@H](C(=O)N[C@H](C#N)Cc2ccc(-c3cc4c(C)nc(C)cn4c3)c(F)c2)OC1 [Compound A35]", "experimentalResult": "8.60 to 9.00"}
{"molecule": "CN1CCCc2ncc(-c3ccc(C[C@@H](C#N)NC(=O)[C@@H]4CNCCCO4)cc3)cc21 [Compound A40]", "experimentalResult": "< 8.60"}
{"molecule": "CO[C@H]1CCO[C@H](C(=O)N[C@H](C#N)Cc2ccc(-c3cc4c(C)nc(C)cn4c3)s2)CNC1 [Compound A44]", "experimentalResult": "< 8.60"}
{"molecule": "CN1CCCC2(C1)C(=O)N(C)c1ccc(-c3ccc(C[C@@H](C#N)NC(=O)[C@@H]4CNCCCO4)cc3)cc12 (stereo partly shown) [Compound 18]", "experimentalResult": "< 8.60"}
{"molecule": "CO[C@@H]1CCNC[C@@H](C(=O)N[C@H](C#N)Cc2ccc(-c3ccc4c(c3)C3(CCN(C5COC5)CC3)OC4)cc2F)OC1 [Compound F6]", "experimentalResult": "< 8.60"}
{"molecule": "CN1CCC2(CC1)C(=O)Nc1ccc(-c3ccc(C[C@@H](C#N)NC(=O)[C@@H]4CNCCCO4)cc3)cc12 [Compound 13]", "experimentalResult": "< 8.60"}
{"molecule": "CO[C@@H]1CCNC[C@@H](C(=O)NC(C#N)Cc2cc3c(cc2F)-c2ccc(C#N)cc2CO3)OC1 (mixture of isomers) [Compound B11]", "experimentalResult": "8.60 to 9.00"}

----------
Molecular target: DPP1 in HL-60 cells (Homo sapiens, UniProt P53634)
Assay: DPP1 Cell IC50 assay
Type: cell-based
Parameters: host or cells: HL-60 cells
Settings: 60 min pre-incubation, H-Gly-Phe-AFC substrate, average of n runs, read-out: Avg. IC50 (DPP1 Cell IC50 value ranges)
recordedEndpoint: IC50

{"molecule": "Cc1nc(C)c2cc(-c3ccc(C[C@@H](C#N)NC(=O)[C@@H]4CNCCCCO4)cc3)cn2c1C [Compound A138]", "testedOn": "DPP1 in HL-60 cells (Homo sapiens, UniProt P53634)", "recordedEndpoint": "IC50", "experimentalResult": "< 1 nM"}
{"molecule": "CCCCOCCn1c(=O)oc2ccc(-c3ccc(C[C@@H](C#N)NC(=O)[C@@H]4CNC(C)C(OC)CO4)c(F)c3)cc21 (some centres unmarked) [Compound E1]", "testedOn": "DPP1 in HL-60 cells (Homo sapiens, UniProt P53634)", "recordedEndpoint": "IC50", "experimentalResult": "1 to 2.5 nM"}
{"molecule": "CCN1C(=O)Cc2ccc(-c3ccc(C[C@@H](C#N)NC(=O)[C@@H]4CNCC[C@@H](OC)CO4)c(F)c3)cc21 [Compound G2]", "testedOn": "DPP1 in HL-60 cells (Homo sapiens, UniProt P53634)", "recordedEndpoint": "IC50", "experimentalResult": "1 to 2.5 nM"}
{"molecule": "N#C[C@H](Cc1ccc(-c2ccc3c(c2)C2(CCNC2)OC3=O)cc1)NC(=O)[C@@H]1CNCCCO1 (some centres unmarked) [Compound 25]", "testedOn": "DPP1 in HL-60 cells (Homo sapiens, UniProt P53634)", "recordedEndpoint": "IC50", "experimentalResult": "> 2.5 nM"}
{"molecule": "N#CC(Cc1cc2c(cc1F)-c1ccc(F)cc1CO2)NC(=O)[C@@H]1CNCCCCO1 (mixture of isomers) [Compound B16]", "testedOn": "DPP1 in HL-60 cells (Homo sapiens, UniProt P53634)", "recordedEndpoint": "IC50", "experimentalResult": "> 2.5 nM"}
{"molecule": "CN1CCC2(CC1)OC(=O)c1ccc(-c3ccc(C[C@@H](C#N)NC(=O)[C@@H]4CNCCCO4)cc3)cc12 [Compound 14]", "testedOn": "DPP1 in HL-60 cells (Homo sapiens, UniProt P53634)", "recordedEndpoint": "IC50", "experimentalResult": "> 2.5 nM"}
{"molecule": "CN1CCC2(CCc3cc4c(cc32)-c2cc(F)c(CC(C#N)NC(=O)[C@@H]3CNCCCO3)cc2OC4)CC1 (mixture of isomers) [Compound C3]", "testedOn": "DPP1 in HL-60 cells (Homo sapiens, UniProt P53634)", "recordedEndpoint": "IC50", "experimentalResult": "> 2.5 nM"}
{"molecule": "CN1C(=O)C2(CCCN(C3COC3)C2)c2cc(-c3ccc(C[C@@H](C#N)NC(=O)[C@@H]4CNCCCO4)cc3)ccc21 (some centres unmarked) [Compound 28]", "testedOn": "DPP1 in HL-60 cells (Homo sapiens, UniProt P53634)", "recordedEndpoint": "IC50", "experimentalResult": "> 2.5 nM"}
